Cited source: ChEMBL document CHEMBL1122281

So I've got a bunch of compounds here, and I need their Reduction of live worms values.
Tested on: Litomosoides carinii
Assay: Antifilarial activity against Litomosoides carinii infections in the Jird at dose 25 mg/kg administered subcutaneously
Format: functional
Settings: route subcutaneous
Write the number in % without appending the unit.

The measured Reduction of live worms associated with CCN(C)Cc1cc(Nc2cc(C(F)(F)F)nc(/N=C(\N)Nc3ccc(Cl)c(Cl)c3)n2)ccc1O reads 100

The measured Reduction of live worms associated with CCNCc1cc(Nc2cc(C(F)(F)F)nc(/N=C(\N)Nc3ccc(Cl)cc3)n2)ccc1OC reads 100

The measured Reduction of live worms associated with CCNCc1cc(Nc2nc(/N=C(\N)Nc3ccc(Cl)c(Cl)c3)nc3c2CCCC3)ccc1OC reads 69

The measured Reduction of live worms associated with CCN(CC)Cc1cc(Nc2ccnc3cc(Cl)ccc23)ccc1O.Cl reads 61

The measured Reduction of live worms associated with CCN(CC)Cc1cc(Nc2cc(C(F)(F)F)nc(/N=C(\N)Nc3ccc(Cl)c(Cl)c3)n2)ccc1OC reads 100

The measured Reduction of live worms associated with CCNCc1cc(Nc2cc(C(F)(F)F)nc(/N=C(\N)Nc3ccc(Cl)c(Cl)c3)n2)ccc1O reads 100

The measured Reduction of live worms associated with COC(=O)Nc1nc2cc(C(=O)c3ccccc3)ccc2[nH]1 reads 100

====

Tested on: Litomosoides carinii
Experiment: Antifilarial activity against Litomosoides carinii infections in the Jird at dose 25 mg/kg administered orally
Assay type: functional
Details: route oral
So I've got a bunch of molecules here, and I need their Reduction of live worms values.
Write the number in % without appending the unit.

The measured Reduction of live worms associated with COc1ccc(Nc2cc(C(F)(F)F)nc(/N=C(\N)Nc3ccccc3)n2)cc1CN1CCN(C)CC1 reads 95

The measured Reduction of live worms associated with CCN(CC)Cc1cc(Nc2cc(C(F)(F)F)nc(/N=C(\N)Nc3ccc(OC)cc3)n2)ccc1O reads 100

The measured Reduction of live worms associated with CCN(CC)Cc1cc(Nc2cc(C(F)(F)F)nc(/N=C(\N)Nc3ccc(C(F)(F)F)cc3)n2)ccc1OCc1ccccc1 reads 100

The measured Reduction of live worms associated with CCN(CC)Cc1cc(Nc2cc(C(F)(F)F)nc(/N=C(\N)Nc3ccc(Cl)c(Cl)c3)n2)ccc1OC(C)C reads 100

The measured Reduction of live worms associated with CCOc1ccc(Nc2cc(-c3ccccc3)nc(/N=C(\N)Nc3ccc(Cl)c(Cl)c3)n2)cc1CN(CC)CC reads 78

The measured Reduction of live worms associated with CN(C)Cc1cc(Nc2cc(C(F)(F)F)nc(/N=C(\N)Nc3ccc(C(F)(F)F)cc3)n2)ccc1O reads 100

The measured Reduction of live worms associated with CCN(CC)Cc1cc(Nc2cc(C(F)(F)F)nc(/N=C(\N)Nc3ccc(Cl)c(Cl)c3)n2)ccc1OC reads 100

The measured Reduction of live worms associated with N/C(=N\c1ccc(Cl)c(Cl)c1)Nc1nc(Nc2ccc(O)c(CN3CCCC3)c2)cc(C(F)(F)F)n1 reads 100

====

System: Litomosoides carinii
Test: Antifilarial activity against Litomosoides carinii infections in the Jird at dose 3 mg/kg administered orally
Type: functional
Details: route oral
Threshold check on Reduction of live worms: at or above 60% gives T, strictly below gives F.

Input line: Is Reduction of live worms for CCNCc1cc(Nc2cc(C(F)(F)F)nc(/N=C(\N)Nc3ccc(C(F)(F)F)cc3)n2)ccc1OC at or above 60%?
Output line: F

Input line: Is Reduction of live worms for CCN(CC)Cc1cc(Nc2cc(C(F)(F)F)nc(/N=C(\N)Nc3ccc(Cl)cc3)n2)ccc1O at or above 60%?
Output line: T

Input line: Is Reduction of live worms for CCN(CC)Cc1cc(Nc2cc(C(F)(F)F)nc(/N=C(\N)Nc3ccc(Cl)c(Cl)c3)n2)ccc1OC at or above 60%?
Output line: T

Input line: Is Reduction of live worms for CCNCc1cc(Nc2cc(C(F)(F)F)nc(/N=C(\N)Nc3ccc(Cl)cc3)n2)ccc1OC at or above 60%?
Output line: T

Input line: Is Reduction of live worms for CCN(CC)Cc1cccc(Nc2cc(C(F)(F)F)nc(/N=C(\N)Nc3ccc(Cl)c(Cl)c3)n2)c1 at or above 60%?
Output line: T

Input line: Is Reduction of live worms for COc1ccc(Nc2cc(C(F)(F)F)nc(/N=C(\N)Nc3ccc(Cl)cc3)n2)cc1CN1CCCC1 at or above 60%?
Output line: T

Input line: Is Reduction of live worms for COc1ccc(Nc2cc(C(F)(F)F)nc(/N=C(\N)Nc3ccccc3)n2)cc1CN1CCN(C)CC1 at or above 60%?
Output line: F

Input line: Is Reduction of live worms for CCN(CC)Cc1cc(Nc2cc(C(F)(F)F)nc(/N=C(\N)Nc3ccc(OC)cc3)n2)ccc1OC at or above 60%?
Output line: F

Input line: Is Reduction of live worms for CCN(CC)Cc1cc(Nc2cc(C(F)(F)F)nc(/N=C(\N)Nc3ccc(C(F)(F)F)cc3)n2)ccc1OC at or above 60%?
Output line: T

Input line: Is Reduction of live worms for CN1CCN(Cc2cc(Nc3cc(C(F)(F)F)nc(/N=C(\N)Nc4ccc(Cl)c(Cl)c4)n3)ccc2O)CC1 at or above 60%?
Output line: F

Input line: Is Reduction of live worms for CCN(CC)Cc1cc(Nc2cc(C(F)(F)F)nc(/N=C(\N)Nc3ccc(Cl)c(Cl)c3)n2)ccc1OC(C)C at or above 60%?
Output line: F

Input line: Is Reduction of live worms for CCN(CC)Cc1cc(Nc2cc(C(F)(F)F)nc(/N=C(\N)Nc3ccc(C(F)(F)F)cc3)n2)ccc1OCc1ccccc1 at or above 60%?
Output line: F

Input line: Is Reduction of live worms for CCN(CC)Cc1cc(Nc2cc(C(F)(F)F)nc(/N=C(\N)Nc3ccc(C(F)(F)F)cc3)n2)ccc1O at or above 60%?
Output line: T

Input line: Is Reduction of live worms for CN(C)Cc1cc(Nc2cc(C(F)(F)F)nc(/N=C(\N)Nc3ccc(Cl)c(Cl)c3)n2)ccc1O at or above 60%?
Output line: T

Input line: Is Reduction of live worms for CN1CCN(Cc2cc(Nc3cc(C(F)(F)F)nc(/N=C(\N)Nc4ccc(C(F)(F)F)cc4)n3)ccc2O)CC1 at or above 60%?
Output line: F

Input line: Is Reduction of live worms for CCOc1ccc(Nc2cc(-c3ccccc3)nc(/N=C(\N)Nc3ccc(Cl)c(Cl)c3)n2)cc1CN(CC)CC at or above 60%?
Output line: F

====

Tested on: Litomosoides carinii
Assay: Antifilarial activity against Litomosoides carinii infections in the Jird at dose 25 mg/kg administered orally
Format: functional
Settings: route oral
So I've got a bunch of molecules here, and I need their Reduction of live worms values.
Write the number in % without appending the unit.

The measured Reduction of live worms associated with CN1CCN(Cc2cc(Nc3cc(C(F)(F)F)nc(/N=C(\N)Nc4ccc(Cl)c(Cl)c4)n3)ccc2O)CC1 reads 100

The measured Reduction of live worms associated with CN(C)Cc1cc(Nc2cc(C(F)(F)F)nc(/N=C(\N)Nc3ccc(C(=O)c4ccccc4)cc3)n2)ccc1O reads 32

The measured Reduction of live worms associated with CN1CCN(Cc2cc(Nc3cc(C(F)(F)F)nc(/N=C(\N)Nc4ccc(C(F)(F)F)cc4)n3)ccc2O)CC1 reads 40

====

So I've got a bunch of molecules here, and I need their Reduction of live worms values.
Test system: Litomosoides carinii
Experiment: Antifilarial activity against Litomosoides carinii infections in the Jird at dose 50 mg/kg administered orally
Type: functional
Settings: route oral
Write the number in % without appending the unit.

The measured Reduction of live worms associated with CCN(CC)Cc1cc(Nc2cc(C(F)(F)F)nc(/N=C(\N)Nc3ccc(Cl)cc3)n2)ccc1O reads 100

The measured Reduction of live worms associated with CCN(CC)Cc1cc(Nc2cc(C(F)(F)F)nc(/N=C(\N)Nc3ccccc3)n2)ccc1O reads 100

The measured Reduction of live worms associated with CN1CCN(Cc2cc(Nc3cc(C(F)(F)F)nc(/N=C(\N)Nc4ccccc4)n3)ccc2O)CC1 reads 78

The measured Reduction of live worms associated with COc1ccc(Nc2cc(C(F)(F)F)nc(/N=C(\N)Nc3ccc(Cl)cc3)n2)cc1CN1CCCC1 reads 100

The measured Reduction of live worms associated with CCN(CC)Cc1cc(Nc2cc(C(F)(F)F)nc(/N=C(\N)Nc3ccccc3)n2)ccc1OC reads 100

The measured Reduction of live worms associated with N/C(=N\c1ccc(Cl)cc1)Nc1nc(Nc2ccc(O)c(CN3CCCC3)c2)cc(C(F)(F)F)n1 reads 100

The measured Reduction of live worms associated with CN1CCN(Cc2cc(Nc3cc(C(F)(F)F)nc(/N=C(\N)Nc4ccc(Cl)cc4)n3)ccc2O)CC1 reads 98

====

So I've got a bunch of molecules here, and I need their Reduction of live worms values.
System: Litomosoides carinii
Experiment: Antifilarial activity against Litomosoides carinii infections in the Jird at dose 25 mg/kg administered orally
Assay type: functional
Conditions: route oral
A complete answer gives the number and then names the unit.

The measured Reduction of live worms associated with CN(C)Cc1cc(Nc2cc(C(F)(F)F)nc(/N=C(\N)Nc3ccc(Cl)c(Cl)c3)n2)ccc1O reads 100%

The measured Reduction of live worms associated with CCOc1ccc(Nc2nc(/N=C(\N)Nc3ccc(Cl)c(Cl)c3)nc3c2CCCC3)cc1CN(CC)CC reads 54%

The measured Reduction of live worms associated with CCNCc1cc(Nc2cc(C(F)(F)F)nc(/N=C(\N)Nc3ccc(C(F)(F)F)cc3)n2)ccc1OC reads 100%

The measured Reduction of live worms associated with COc1ccc(Nc2cc(C(F)(F)F)nc(/N=C(\N)Nc3ccc(Cl)c(Cl)c3)n2)cc1CN(C)C reads 100%

The measured Reduction of live worms associated with CCNCc1cc(Nc2cc(C(F)(F)F)nc(/N=C(\N)Nc3ccc(Cl)c(Cl)c3)n2)ccc1O reads 100%

The measured Reduction of live worms associated with CCN(C)Cc1cc(Nc2cc(C(F)(F)F)nc(/N=C(\N)Nc3ccc(Cl)c(Cl)c3)n2)ccc1O reads 100%

The measured Reduction of live worms associated with CCN(CC)Cc1cc(Nc2ccnc3cc(Cl)ccc23)ccc1O.Cl reads 71%

The measured Reduction of live worms associated with CCN(CC)Cc1cc(Nc2cc(C(F)(F)F)nc(/N=C(\N)Nc3ccc(OC)cc3)n2)ccc1OC reads 100%

The measured Reduction of live worms associated with CCN(CC)Cc1cc(Nc2cc(C(F)(F)F)nc(/N=C(\N)Nc3ccc(Cl)c(Cl)c3)n2)ccc1OCc1ccccc1 reads 100%
